Target: HIV-1 NefNL4-3 (Human immunodeficiency virus type 1 group M subtype B, UniProt P03406, A33V/T15A/T51N/V11I)
Assay: Surface plasmon resonance binding to recombinant full-length Nef (NL4-3)
Conditions: Nef NL4-3 Binding, SPR 2-state fitting KD, Table 1; 2-step induced-fit model

compound | units text | Kd
CC(=O)N1CCC(Cc2c(-c3ccc(C(F)(F)F)cc3)nn(-c3nc4ccccc4[nH]3)c2O)CC1 | nM | 1810
Oc1c(CC2CCCC2)c(-c2ccc(C(F)(F)F)cc2)nn1-c1nc2ccccc2[nH]1 | nM | 0.0936
Oc1c(CCc2ccc(F)cc2)c(C2CCC2)nn1-c1nc2ccccc2[nH]1 | nM | 0.0371
CC(=O)N1CCCC(c2nn(-c3nc4ccccc4[nH]3)c(O)c2CCc2ccc(F)cc2)C1 (stereo not drawn) | nM | 0.0233
Oc1c(CCc2ccc(F)cc2)c(C2CC2)nn1-c1nc2cc(Cl)ccc2[nH]1 | nM | 12.5
O=C(C1CCOC1)N1CCC(c2nn(-c3nc4ccccc4[nH]3)c(O)c2CCc2ccc(F)cc2)CC1 (stereo not drawn) | nM | 2.06
Oc1c(CCC2CCNCC2)c(-c2ccc(C(F)(F)F)cc2)nn1-c1nc2ccccc2[nH]1 | nM | 749
Oc1c(CCc2ccc(F)cc2)c(-c2ccc(F)cc2)nn1-c1nc2cc(Cl)ccc2[nH]1 | nM | 69.3
CC(C)(C)OC(=O)N1CCC(c2nn(-c3nc4ccc(Cl)cc4[nH]3)c(O)c2CCc2ccc(F)cc2)CC1 | nM | 0.00871
CCOC(=O)N1CCC(c2nn(-c3nc4ccccc4[nH]3)c(O)c2CCC2CCOCC2)CC1 | nM | 9090
CS(=O)(=O)c1ccc(-c2nn(-c3nc4cc(Cl)ccc4[nH]3)c(O)c2CCC2CCNCC2)cc1 | nM | 8.54
COc1cc(N2CCC(CCc3c(C4CC4)nn(-c4nc5cc(Cl)ccc5[nH]4)c3O)CC2)nc(OC)n1 | nM | 0.00367
Oc1c(CCc2ccc(F)cc2)c(-c2ccc(C(F)(F)F)cn2)nn1-c1nc2cc(F)ccc2[nH]1 | nM | 2.02
Cn1ccc(-c2nn(-c3nc4ccccc4[nH]3)c(O)c2CCc2ccc(F)cc2)cc1=O | nM | 1.51
CC(C)(C)OC(=O)N1CCC(c2nn(-c3nc4cccnc4[nH]3)c(O)c2CCc2ccc(F)cc2)CC1 | nM | 3950

====

Target: HIV-1 NefNL4-3 (Human immunodeficiency virus type 1 group M subtype B, UniProt P03406, A33V/T15A/T51N/V11I)
Assay: Surface plasmon resonance binding to recombinant full-length Nef (NL4-3)
Settings: KD, two-step induced-fit model; Reichert SPR; Table 3; read-out: Reichert SPR Nef NL43 (M) two-step fitting

smi | Kd / M
O=S(=O)(C1CCCCC1)N1CCC(c2nn(-c3nc4ccccc4[nH]3)c(O)c2CCc2ccc(F)cc2)CC1 | 0.000257

====

Test system: TZM-bl cell line
Format: cell-based
Settings: human, 1 μM
In this section, each of the compounds is paired with its reported % Cell Viability.
attribute measured: % Cell Viability (%)

smi | test value
O=S(=O)(NCc1nn(-c2nc3ccccc3[nH]2)c(O)c1CCc1ccc(F)cc1)c1cccnc1 | 94.4
Oc1c(CC2CCOCC2)c(-c2ccc(F)c(F)c2)nn1-c1nc2ccccc2[nH]1 | 95.1
Oc1c(CC2CCOCC2)c(-c2ccc(F)cc2)nn1-c1nc2cccnc2[nH]1 | 96.7
CC(C)(O)C(=O)N1CCC(CCc2c(-c3cccc(S(C)(=O)=O)c3)nn(-c3nc4ccccc4[nH]3)c2O)CC1 | 97.1
